Data provenance: patent US20130115166A1

Biological target: T1, Human IL-23 (human, UniProt P29460 23-328; Q9NPF7 20-189)
T1 construct: Heterodimer of IL-12p40 covalently linked to IL-23p19, purchased (Ebiosciences or RnD Systems); also called hIL-23; rhIL23
T1 sequence 1: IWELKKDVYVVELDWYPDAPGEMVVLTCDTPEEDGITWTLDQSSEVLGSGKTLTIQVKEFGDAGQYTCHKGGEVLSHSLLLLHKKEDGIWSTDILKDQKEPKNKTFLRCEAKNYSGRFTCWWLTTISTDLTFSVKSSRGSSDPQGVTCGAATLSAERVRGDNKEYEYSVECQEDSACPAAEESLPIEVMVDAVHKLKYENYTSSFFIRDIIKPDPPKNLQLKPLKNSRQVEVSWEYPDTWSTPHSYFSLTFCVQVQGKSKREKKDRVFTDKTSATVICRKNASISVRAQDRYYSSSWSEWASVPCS
T1 sequence 2: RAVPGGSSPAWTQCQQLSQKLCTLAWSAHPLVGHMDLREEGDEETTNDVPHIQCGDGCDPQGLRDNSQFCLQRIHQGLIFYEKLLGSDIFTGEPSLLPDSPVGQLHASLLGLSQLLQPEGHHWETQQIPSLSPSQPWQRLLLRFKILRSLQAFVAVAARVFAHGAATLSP
Assay: SPR (Biacore 3000), antibody captured on Protein A, IL-23 as analyte, 1:1 Langmuir fit
Property: kon; scope: individual binders

binder	unit_annotation	kon
E11E7Chimera (antibody, human IgG1, kappa, V domains shown, Rat E11E7 variable regions on human constant regions; also called E11E7 chimeric antibody) VH: QVQLKESGPGLVQPSQTLSLTCTVSGFSLISYNVHWVRQPRGKGLEWMGVIWTGGSTDYNSVLKSRLSISRDTSKSQVFLKMHSLQTEDIGTYYCARDKYGLFPGYFDYWGQGVMVTVSS VL: DIVMTQSPFSLAVSEGEMVTINCKPSQSLLSSGNRKNYLAWYQQKPGQSPKLLIYYASTRQSGVPDRFIGSGSGTDFTLTISDVQAEDLADYYCLQHFNYPWTFGGGTKLELKR	M⁻¹ s⁻¹	542000
6-22 (antibody, human IgG1, kappa, V domains shown, Humanized form of E11E7; also called humanized antibody 6-22) VH: QVQLQESGPGLVKPSETLSLTCTVSGFSISSYNVHWIRQPPGKGLEWIGVIWTGGSTDYNPSLKSRVTISRDTSKNQFSLKLSSVTAADTAVYYCARDKYGLFPGYFDYWGQGTLVTVSS VL: DIVMTQSPDSLAVSLGERATINCKPSQSLLSSGNRKNYLAWYQQKPGQPPKLLIYYASTRQSGVPDRFSGSGSGTDFTLTISSLQAEDVAVYYCLQHFNYPWTFGQGTKLEIKR	M⁻¹ s⁻¹	465000
21-4 (antibody, human IgG1, kappa, V domains shown, Humanized form of E11E7; also called humanized antibody 21-4) VH: EVQLQQWGAGLLKPSETLSLTCAVYGFSLISYNVHWIRQPPGKGLEWIGVIWTGGSTDYNSVLKSRVTISRDTSKNQFSLKLSSVTAADTAVYYCARDKYGLFPGYFDYWGQGTLVTVSS VL: EIVLTQSPATLSLSPGERATLSCKPSQSLLSSGNRKNYLAWYQQKPGQAPRLLIYYASTRQSGIPDRFSGSGSGTDFTLTISRLEPEDFAVYYCLQHFNYPWTFGGGTKVEIKR	M⁻¹ s⁻¹	521000
